Target: UniProtKB P06241
Sequence (P06241 whole entry): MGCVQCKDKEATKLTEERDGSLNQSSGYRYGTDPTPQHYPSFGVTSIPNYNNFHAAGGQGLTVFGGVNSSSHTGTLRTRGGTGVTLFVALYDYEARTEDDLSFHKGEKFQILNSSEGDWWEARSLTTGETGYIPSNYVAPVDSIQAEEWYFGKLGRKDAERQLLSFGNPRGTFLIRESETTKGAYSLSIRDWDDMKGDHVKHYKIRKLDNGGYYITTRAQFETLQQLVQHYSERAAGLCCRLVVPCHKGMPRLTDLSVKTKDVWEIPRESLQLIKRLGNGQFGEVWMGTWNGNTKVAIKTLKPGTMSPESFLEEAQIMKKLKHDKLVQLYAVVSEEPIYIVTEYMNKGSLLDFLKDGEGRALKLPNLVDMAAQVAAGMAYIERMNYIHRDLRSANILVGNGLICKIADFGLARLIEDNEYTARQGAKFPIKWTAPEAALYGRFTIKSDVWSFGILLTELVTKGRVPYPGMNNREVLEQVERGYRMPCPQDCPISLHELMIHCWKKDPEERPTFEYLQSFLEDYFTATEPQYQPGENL
Experiment: Competitive binding affinity to FYN in human A375 cells after 15 mins in presence of ATP analogue
pIC50: −log10 of the molar value.
Reported metric: pIC50

Compound structure string | Measured target | Result
CNc1ncc2cc(-c3cc(NC(=O)NCCC(C)(C)C)c(F)cc3C)c(C)nc2n1 | UniProtKB P06241 | 7.04

====

Target: Vascular endothelial growth factor receptor 2 (Homo sapiens)
Sequence (P35968 whole entry): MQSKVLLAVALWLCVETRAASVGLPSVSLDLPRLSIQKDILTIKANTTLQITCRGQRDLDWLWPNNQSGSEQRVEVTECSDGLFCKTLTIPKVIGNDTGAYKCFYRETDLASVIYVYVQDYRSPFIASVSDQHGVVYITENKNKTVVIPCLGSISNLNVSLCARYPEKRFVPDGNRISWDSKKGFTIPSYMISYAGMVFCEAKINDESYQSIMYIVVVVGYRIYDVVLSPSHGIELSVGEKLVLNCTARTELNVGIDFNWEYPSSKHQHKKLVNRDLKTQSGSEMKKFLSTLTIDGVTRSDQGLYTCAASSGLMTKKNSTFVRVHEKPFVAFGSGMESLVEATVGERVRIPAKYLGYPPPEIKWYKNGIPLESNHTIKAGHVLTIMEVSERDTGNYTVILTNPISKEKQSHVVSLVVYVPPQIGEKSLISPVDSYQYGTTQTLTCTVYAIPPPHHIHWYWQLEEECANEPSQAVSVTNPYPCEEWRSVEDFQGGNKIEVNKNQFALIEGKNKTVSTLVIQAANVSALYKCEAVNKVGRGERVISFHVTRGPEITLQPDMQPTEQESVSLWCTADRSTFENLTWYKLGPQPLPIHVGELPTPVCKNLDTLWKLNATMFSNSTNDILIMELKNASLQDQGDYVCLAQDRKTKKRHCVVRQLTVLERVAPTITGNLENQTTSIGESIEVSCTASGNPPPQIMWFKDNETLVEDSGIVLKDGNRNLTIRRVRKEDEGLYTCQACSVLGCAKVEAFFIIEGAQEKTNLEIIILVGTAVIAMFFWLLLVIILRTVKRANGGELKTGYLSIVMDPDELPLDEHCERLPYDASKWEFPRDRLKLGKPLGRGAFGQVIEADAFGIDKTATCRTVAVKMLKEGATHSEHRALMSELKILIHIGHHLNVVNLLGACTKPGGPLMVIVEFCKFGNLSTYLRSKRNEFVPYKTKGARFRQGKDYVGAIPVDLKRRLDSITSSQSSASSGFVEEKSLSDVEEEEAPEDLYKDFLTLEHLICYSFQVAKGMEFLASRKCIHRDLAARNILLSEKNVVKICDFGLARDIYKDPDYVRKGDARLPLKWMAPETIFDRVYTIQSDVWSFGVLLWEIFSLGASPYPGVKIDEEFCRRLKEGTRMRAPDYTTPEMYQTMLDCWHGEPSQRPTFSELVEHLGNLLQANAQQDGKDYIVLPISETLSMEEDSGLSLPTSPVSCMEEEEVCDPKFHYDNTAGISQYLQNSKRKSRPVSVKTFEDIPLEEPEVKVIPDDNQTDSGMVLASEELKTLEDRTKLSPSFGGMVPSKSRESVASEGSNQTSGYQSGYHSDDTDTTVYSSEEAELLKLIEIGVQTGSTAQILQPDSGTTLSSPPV
Reported metric: log10(IC50) (log10 of the value in µM)

Compound structure string | log10(IC50)
Cc1cc(F)c(NC(=O)NCCC(C)(C)C)cc1-c1cc2cnc(N)nc2nc1C | -0.27
CCn1c(=O)c(-c2cc(NC(=O)NCCC(C)(C)C)c(F)cc2C)cc2cnc(NC)cc21 | -1.60
CNc1cc2c(cn1)cc(-c1ccc(F)c(NC(=O)Nc3cc(C(C)(C)C)no3)c1)c(=O)n2[C@H]1CCOC1 | -3.34
CNc1ncc2cc(-c3cc(NC(=O)NCCC(C)(C)C)c(F)cc3C)cnc2n1 | 0.28
CNc1ncc2cc(-c3ccc(F)c(NC(=O)NCCC(C)(C)C)c3)c(C)nc2n1 | -0.12
CNc1cc2nc(C)c(-c3cc(NC(=O)NCCC(C)(C)C)c(F)cc3C)cc2cn1 | -0.77

====

Test: Solubility of the compound in water
Format: physicochemical

Compound | solubility
CNc1ncc2cc(-c3cc(NC(=O)NCCC(C)(C)C)c(F)cc3C)c(C)nc2n1 [LY-3009120] | < 1 µg/mL

====

Biological target: Mitogen-activated protein kinase kinase kinase 1 (Homo sapiens)
Sequence (Q13233 whole entry): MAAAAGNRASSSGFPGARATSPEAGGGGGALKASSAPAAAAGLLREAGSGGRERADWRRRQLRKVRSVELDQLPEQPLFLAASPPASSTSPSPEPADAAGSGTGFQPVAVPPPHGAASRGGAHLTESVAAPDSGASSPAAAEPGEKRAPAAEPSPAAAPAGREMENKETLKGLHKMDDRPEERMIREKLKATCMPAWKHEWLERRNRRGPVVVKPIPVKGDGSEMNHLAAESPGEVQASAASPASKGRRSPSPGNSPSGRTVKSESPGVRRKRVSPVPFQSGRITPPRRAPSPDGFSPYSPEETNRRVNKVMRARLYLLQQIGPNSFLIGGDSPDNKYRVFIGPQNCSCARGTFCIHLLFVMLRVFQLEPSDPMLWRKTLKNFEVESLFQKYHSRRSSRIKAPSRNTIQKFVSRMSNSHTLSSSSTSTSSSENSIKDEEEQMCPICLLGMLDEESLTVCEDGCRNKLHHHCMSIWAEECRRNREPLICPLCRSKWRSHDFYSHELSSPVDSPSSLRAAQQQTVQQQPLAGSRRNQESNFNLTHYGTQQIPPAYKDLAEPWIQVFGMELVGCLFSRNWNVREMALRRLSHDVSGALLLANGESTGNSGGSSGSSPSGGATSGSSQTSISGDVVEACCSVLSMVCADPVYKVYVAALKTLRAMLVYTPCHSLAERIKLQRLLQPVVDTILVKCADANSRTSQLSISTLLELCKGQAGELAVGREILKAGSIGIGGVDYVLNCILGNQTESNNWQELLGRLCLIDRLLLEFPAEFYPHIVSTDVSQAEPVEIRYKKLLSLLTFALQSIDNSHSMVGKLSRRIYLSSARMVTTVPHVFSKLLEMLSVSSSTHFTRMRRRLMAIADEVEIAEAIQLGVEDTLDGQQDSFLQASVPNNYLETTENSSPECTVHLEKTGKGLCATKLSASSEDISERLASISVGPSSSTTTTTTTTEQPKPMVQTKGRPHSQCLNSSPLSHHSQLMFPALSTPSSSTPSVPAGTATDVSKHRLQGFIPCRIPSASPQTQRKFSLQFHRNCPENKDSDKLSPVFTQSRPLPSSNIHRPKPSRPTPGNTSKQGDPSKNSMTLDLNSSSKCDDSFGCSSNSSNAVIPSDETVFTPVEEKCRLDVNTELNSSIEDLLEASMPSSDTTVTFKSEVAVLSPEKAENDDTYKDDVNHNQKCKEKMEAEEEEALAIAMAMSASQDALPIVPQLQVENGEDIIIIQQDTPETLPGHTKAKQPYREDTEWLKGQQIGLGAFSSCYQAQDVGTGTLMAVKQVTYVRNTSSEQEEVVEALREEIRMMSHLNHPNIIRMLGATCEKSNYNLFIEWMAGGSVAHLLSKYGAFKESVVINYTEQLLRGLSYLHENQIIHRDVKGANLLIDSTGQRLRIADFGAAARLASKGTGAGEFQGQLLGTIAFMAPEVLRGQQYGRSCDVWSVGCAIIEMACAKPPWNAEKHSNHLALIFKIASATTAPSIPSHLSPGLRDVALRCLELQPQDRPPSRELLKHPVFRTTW
Test: Competitive binding affinity to MAP3K1 in human A375 cells after 15 mins in presence of ATP analogue
pIC50: −log10 of the molar value.
Reported metric: pIC50

Compound structure string | Result
CNc1ncc2cc(-c3cc(NC(=O)NCCC(C)(C)C)c(F)cc3C)c(C)nc2n1 | 7.01

====

Target: UniProt:P51617
Experiment: Competitive binding affinity to IRAK1 in human A375 cells after 15 mins in presence of ATP analogue
pIC50: −log10 of the molar value.

Compound structure string | pIC50
CNc1ncc2cc(-c3cc(NC(=O)NCCC(C)(C)C)c(F)cc3C)c(C)nc2n1 | 6.41

====

Assay: Solubility of the compound in simulated fasted gastric fluid
Format: ADME

Compound structure string | Unit of measurement | solubility
CNc1ncc2cc(-c3cc(NC(=O)NCCC(C)(C)C)c(F)cc3C)c(C)nc2n1 | µg/mL | 2

====

Assay: AUC (0 to 24 hrs) in monkey at 10 mg/kg, po administered as suspension in 20% cyclodextrin
Format: ADME, organism-based, Macaca mulatta
Design: dose 10 mg/kg, time < 24 hr, route oral
Settings: rhesus monkey, in vivo
Reported metric: AUC(0-t) at 24 h

Molecule | Reported metric | Result
CNc1ncc2cc(-c3cc(NC(=O)NCCC(C)(C)C)c(F)cc3C)c(C)nc2n1 [LY-3009120] | AUC(0-t) at 24 h | 1260 ng·h/mL

====

Assay: Oral bioavailability in dog at 10 mg/kg administered in API capsule
Format: ADME, organism-based, Canis lupus familiaris
Conditions: in vivo
Reported metric: bioavailability (%)

Compound structure string | Reported metric | Result
CNc1ncc2cc(-c3cc(NC(=O)NCCC(C)(C)C)c(F)cc3C)c(C)nc2n1 | bioavailability | 0.2

====

Target: Serine/threonine-protein kinase A-Raf (Homo sapiens)
Sequence (P10398 whole entry): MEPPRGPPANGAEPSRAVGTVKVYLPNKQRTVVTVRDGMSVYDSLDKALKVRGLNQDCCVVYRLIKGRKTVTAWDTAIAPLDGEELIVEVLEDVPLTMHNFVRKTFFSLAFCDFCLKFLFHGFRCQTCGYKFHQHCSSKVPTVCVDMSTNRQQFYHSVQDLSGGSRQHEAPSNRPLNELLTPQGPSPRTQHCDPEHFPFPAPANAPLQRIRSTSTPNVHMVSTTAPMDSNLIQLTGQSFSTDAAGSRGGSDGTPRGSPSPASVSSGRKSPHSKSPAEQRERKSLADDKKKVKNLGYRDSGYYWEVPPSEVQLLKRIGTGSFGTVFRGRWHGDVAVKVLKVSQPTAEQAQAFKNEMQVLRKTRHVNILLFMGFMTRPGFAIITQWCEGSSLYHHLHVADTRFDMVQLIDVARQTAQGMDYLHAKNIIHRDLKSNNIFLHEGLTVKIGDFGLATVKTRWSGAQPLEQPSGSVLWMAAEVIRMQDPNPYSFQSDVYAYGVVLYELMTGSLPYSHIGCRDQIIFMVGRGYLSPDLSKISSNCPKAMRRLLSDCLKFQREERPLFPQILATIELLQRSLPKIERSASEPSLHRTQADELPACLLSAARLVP
Test: Competitive binding affinity to ARAF in human A375 cells after 15 mins in presence of ATP analogue
pIC50: −log10 of the molar value.

Compound structure string | pIC50
CC(C)(C)c1nc(-c2cccc(NS(=O)(=O)c3c(F)cccc3F)c2F)c(-c2ccnc(N)n2)s1 | 7.59
CCCS(=O)(=O)Nc1ccc(F)c(C(=O)c2c[nH]c3ncc(-c4ccc(Cl)cc4)cc23)c1F | 6.02

====

Molecular target: UniProtKB P41240
Sequence (P41240 whole entry): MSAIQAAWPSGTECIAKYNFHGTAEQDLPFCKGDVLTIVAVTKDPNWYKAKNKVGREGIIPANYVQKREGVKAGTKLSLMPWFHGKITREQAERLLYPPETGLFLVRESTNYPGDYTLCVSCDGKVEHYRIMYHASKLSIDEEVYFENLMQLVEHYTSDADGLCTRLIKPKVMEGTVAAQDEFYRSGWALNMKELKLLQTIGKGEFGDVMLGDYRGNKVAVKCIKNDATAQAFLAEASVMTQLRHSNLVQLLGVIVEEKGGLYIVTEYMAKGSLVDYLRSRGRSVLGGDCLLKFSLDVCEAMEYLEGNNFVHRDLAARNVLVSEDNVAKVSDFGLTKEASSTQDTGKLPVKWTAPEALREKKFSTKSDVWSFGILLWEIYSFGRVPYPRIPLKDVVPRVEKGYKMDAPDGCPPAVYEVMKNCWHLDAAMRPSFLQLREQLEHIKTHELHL
Test: Competitive binding affinity to CSK in human A375 cells after 15 mins in presence of ATP analogue
pIC50: −log10 of the molar value.
Reported metric: pIC50

Compound | Measured target | Result
CNc1ncc2cc(-c3cc(NC(=O)NCCC(C)(C)C)c(F)cc3C)c(C)nc2n1 [LY-3009120] | UniProtKB P41240 | 6.54

====

Experiment: Dissociation constant, pKa of the compound
Assay type: physicochemical
Reported metric: pKa

Compound structure string | Reported metric | Result
CNc1ncc2cc(-c3cc(NC(=O)NCCC(C)(C)C)c(F)cc3C)c(C)nc2n1 | pKa | 4.52

====

Experiment: Solubility of the compound in simulated fed intestinal fluid
Type: ADME
Reported metric: solubility (µg/mL)

Compound structure string | Unit of measurement | Result
CNc1ncc2cc(-c3cc(NC(=O)NCCC(C)(C)C)c(F)cc3C)c(C)nc2n1 | µg/mL | 2
CNc1cc2c(cn1)cc(-c1ccc(F)c(NC(=O)Nc3cc(C(C)(C)C)no3)c1)c(=O)n2[C@H]1CCOC1 | µg/mL | 2
CCn1c(=O)c(-c2ccc(F)c(NC(=O)Nc3cc(C(C)(C)C)no3)c2)cc2cnc(NC)cc21 | µg/mL | 310

====

Test: Half life in Sprague-Dawley rat at 10 mg/kg, po administered as suspension in 1% HEC
Assay type: ADME, organism-based
Settings: in vivo

Compound structure string | half-life, h
CNc1ncc2cc(-c3cc(NC(=O)NCCC(C)(C)C)c(F)cc3C)c(C)nc2n1 | 1.4

====

Experiment: Solubility of the compound in simulated fed gastric fluid
Type: ADME
Reported metric: solubility (µg/mL)

Compound | Result
CNc1ncc2cc(-c3cc(NC(=O)NCCC(C)(C)C)c(F)cc3C)c(C)nc2n1 [LY-3009120] | 2

====

Assay: Half life in dog at 10 mg/kg, po administered as solid suspension
Assay type: ADME, organism-based, Canis lupus familiaris
Conditions: in vivo

Compound structure string | Unit of measurement | half-life
CNc1ncc2cc(-c3cc(NC(=O)NCCC(C)(C)C)c(F)cc3C)c(C)nc2n1 | h | 7.9

====

Test: Lipophilicity, log P of the compound
Format: physicochemical
Settings: octanol/water
Reported metric: logP

Compound | Reported metric | Result
CNc1ncc2cc(-c3cc(NC(=O)NCCC(C)(C)C)c(F)cc3C)c(C)nc2n1 [LY-3009120] | logP | 4.29

====

Experiment: Permeability across MDCK cells expressing MDR1
Assay type: ADME, cell-based, Canis lupus familiaris
Conditions: dog, read-out: permeability
Reported metric: Papp (×10⁻⁶ cm/s)

Compound | Unit of measurement | Result
CNc1ncc2cc(-c3cc(NC(=O)NCCC(C)(C)C)c(F)cc3C)c(C)nc2n1 [LY-3009120] | ×10⁻⁶ cm/s | 47

====

Biological target: RAF proto-oncogene serine/threonine-protein kinase (Homo sapiens, UniProt P04049)
Sequence (P04049 whole entry): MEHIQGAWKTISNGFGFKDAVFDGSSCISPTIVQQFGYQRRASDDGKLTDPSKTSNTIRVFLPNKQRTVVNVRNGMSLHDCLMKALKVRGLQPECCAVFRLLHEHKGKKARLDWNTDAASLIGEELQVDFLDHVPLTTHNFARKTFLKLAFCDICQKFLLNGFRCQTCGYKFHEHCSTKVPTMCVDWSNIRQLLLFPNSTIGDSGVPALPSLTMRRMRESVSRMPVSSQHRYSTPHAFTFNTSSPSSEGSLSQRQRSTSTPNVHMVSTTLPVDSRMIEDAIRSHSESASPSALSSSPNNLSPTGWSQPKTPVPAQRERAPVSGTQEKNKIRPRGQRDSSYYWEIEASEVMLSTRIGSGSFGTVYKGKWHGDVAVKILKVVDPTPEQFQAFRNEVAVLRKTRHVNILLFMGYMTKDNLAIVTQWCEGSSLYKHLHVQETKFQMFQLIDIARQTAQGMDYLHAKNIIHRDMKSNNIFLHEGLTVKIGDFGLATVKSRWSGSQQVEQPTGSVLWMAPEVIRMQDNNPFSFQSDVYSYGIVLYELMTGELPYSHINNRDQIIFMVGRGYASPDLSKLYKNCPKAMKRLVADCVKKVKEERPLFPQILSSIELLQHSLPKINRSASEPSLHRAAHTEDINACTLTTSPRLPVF

Compound structure string | Measured target | IC50
CNc1cc2nc(C)c(-c3cc(NC(=O)NCCC(C)(C)C)ccc3C)cc2cn1 | RAF proto-oncogene serine/threonine-protein kinase (Homo sapiens, UniProt P04049) | 6.7 nM
CNc1cc2nc(C)c(-c3cc(NC(=O)NCCC(C)(C)C)c(F)cc3C)cc2cn1 | RAF proto-oncogene serine/threonine-protein kinase (Homo sapiens, UniProt P04049) | 5.6 nM
CCn1c(=O)c(-c2cc(NC(=O)NCCC(C)(C)C)c(F)cc2C)cc2cnc(NC)cc21 | RAF proto-oncogene serine/threonine-protein kinase (Homo sapiens, UniProt P04049) | 5.2 nM
CNc1ncc2cc(-c3ccc(F)c(NC(=O)NCCC(C)(C)C)c3)c(C)nc2n1 | RAF proto-oncogene serine/threonine-protein kinase (Homo sapiens, UniProt P04049) | 2.8 nM
CNc1cc2nc(C)c(-c3cc(NC(=O)NC[C@@H](O)C(C)(C)C)c(F)cc3C)cc2cn1 | RAF proto-oncogene serine/threonine-protein kinase (Homo sapiens, UniProt P04049) | 7.2 nM
CNc1ncc2cc(-c3cc(NC(=O)NCCC(C)(C)C)c(F)cc3C)cnc2n1 | RAF proto-oncogene serine/threonine-protein kinase (Homo sapiens, UniProt P04049) | 1.2 nM
CNc1cc2c(cn1)cc(-c1ccc(F)c(NC(=O)Nc3cc(C(C)(C)C)no3)c1)c(=O)n2[C@H]1CCOC1 | RAF proto-oncogene serine/threonine-protein kinase (Homo sapiens, UniProt P04049) | 3.1 nM
CNc1cc2nc(C)c(-c3ccc(F)c(NC(=O)NCCC(C)(C)C)c3)cc2cn1 | RAF proto-oncogene serine/threonine-protein kinase (Homo sapiens, UniProt P04049) | 1.6 nM
CCn1c(=O)c(-c2ccc(F)c(NC(=O)Nc3cc(C(C)(C)C)no3)c2)cc2cnc(NC)cc21 | RAF proto-oncogene serine/threonine-protein kinase (Homo sapiens, UniProt P04049) | 2.9 nM
